Please provide measured 8OG:A repair function score for the entries that follow.
B1: library; numbered along this chain (parent)
chain: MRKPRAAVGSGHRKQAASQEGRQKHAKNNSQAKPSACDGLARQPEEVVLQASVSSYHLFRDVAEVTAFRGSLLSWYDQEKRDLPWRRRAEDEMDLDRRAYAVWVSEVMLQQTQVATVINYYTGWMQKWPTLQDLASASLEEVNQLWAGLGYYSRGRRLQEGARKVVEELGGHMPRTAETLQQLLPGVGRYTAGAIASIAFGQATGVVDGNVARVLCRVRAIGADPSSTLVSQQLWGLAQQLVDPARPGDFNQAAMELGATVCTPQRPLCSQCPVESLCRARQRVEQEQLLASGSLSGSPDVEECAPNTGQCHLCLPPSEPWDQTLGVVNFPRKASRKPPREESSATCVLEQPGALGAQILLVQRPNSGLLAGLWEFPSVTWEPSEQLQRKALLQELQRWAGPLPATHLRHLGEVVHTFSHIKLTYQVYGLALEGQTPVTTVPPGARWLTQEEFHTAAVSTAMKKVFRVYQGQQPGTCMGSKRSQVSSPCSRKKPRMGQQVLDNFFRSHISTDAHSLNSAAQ

- Variants of: B1
- Test Method Notes: 8OG:A repair function score (normalized; synonymous = 0, nonsense = -1) (normalized log-likelihood score); higher = more repair activity (WT-like);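 note: cells sorted at 72 h after reporter transfection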
- Test Settings: with 8OG:A DNA repair reporter (GFP) in HEK-293 MUTYH KO cells
Give bare numbers.

# batch size: 7; output 8OG:A repair function score per entry
1. Q182Y
2. P129C
3. C272E
4. I198N
5. R506G
6. G471W
7. E451S

[A]
1: 0.00409; 2: -0.403; 3: -1.29; 4: -0.562; 5: -0.0057; 6: -0.0505; 7: -0.131
